All values here come from patent US20220119522A1.

The reader will find reported fold over background (A450) values listed item by item below.
# SYSTEM UNDER TEST: T1, human TREM2 truncated stalk peptide (aa 149-163) (human, also: biotinylated (site not given here))
# T1 construct: also called Human TREM2 peptide (aa 149-163); truncated stalk peptide containing the ADAM10/17 cleavage site
# T1 peptide: SFEDAHVEHSISRSL
# PROTOCOL TEXT: ELISA on biotinylated peptide captured by streptavidin; A450 normalised to isotype control
# Description: TREM2 antibodies were evaluated for binding to human and mouse TREM2 stalk region peptides. […] Antibody binding to TREM2 stalk peptides was detected using standard sandwich ELISA. Briefly, a 96-well half-area ELISA plate was coated with streptavidin overnight at 4° C. […] Antibodies bound to peptide were detected with anti-human kappa-HRP secondary antibody (Bethyl Laboratories, Inc.) diluted in 1% BSA/PBS. […]
No end group written: not given here.
Your answer is read as fold, so omit the unit and give the number.

# annotated cases, reported fold over background (A450) shown
BINDER | UNIT LABEL | fold over background (A450)
CL0020205 (antibody, V domains shown, also called Clone CL0020205) VH: EVQLQQSGPVLVKPGASVKMSCKASGYTFTDYYVHWVKQSHGKSLEWIGLINPYTGTTSYNQRFRVKATLTVDKSSSTAYMEVNSLTSEDSAVYYCARSRVYYGSSLFAFWGQGTLVTVSA VL: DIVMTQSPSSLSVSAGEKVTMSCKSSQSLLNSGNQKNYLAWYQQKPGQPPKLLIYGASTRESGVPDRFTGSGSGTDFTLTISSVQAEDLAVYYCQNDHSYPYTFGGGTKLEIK | fold | 1.2
CL0020206 (antibody, V domains shown, also called Clone CL0020206) VH: EVQLQQSGPVLVKPGASVKMSCKASGYTFTDYYMNWVKQSHGKSLEWIGIINPYSGGISYNQKFKGKAILTVDKSSSTAYMELNSLTSEASAVYYCTRRNWDGRYAMDYWGQGTSVTVSS VL: DIVMTQSHKFMSTSVGDRVSITYKASQDVGSAVAWYQQKPGQSPKLLIYWTSTRHTGVPDRFTGSGSGTDFTLTISNVQSEDLADYFCQQYSSYPFTFGGGTKLEIK | fold | 1.6
CL0020314 (antibody, V domains shown, also called Clone CL0020314) VH: DVKLVESGGGLVKLGGSLKLSCAASGFTFSSYYMSWVRQTPEKRLELVAAINTNGGRTYYPDTVKGRFTISRDNAKNTLYLQMSSLKSEDTALYYCARESDGGAFAYWGQGTLVTVSA VL: DVVMTQTPLSLPVSLGDQASISCRSSQSLVHSNGNTYLHWYLQKPGQSPKLLIYKVSNRFSGVPDRFSGSGSGTDFTLKISRVEAEDLGVYFCSQNTHVPLTFGAGTKLELK | fold | 1.2
CL0020161 (antibody, V domains shown, also called Clone CL0020161) VH: EVQLVESGGGLVQPGRSMKLSCAALGFTFSNYYMAWVRQAPRKGLEWVASISTGGDNTYYRDSVKGRFTISRDNAKSTLYMQMDSLRSEDTATYYCVRSFIVGTTGYYFDYWGQGVMVTVSS VL: DIVLTQSPALAVSLGQRATISCKTNQNVDYYGNNYMHWYQQTPGQQPKLLIYFASNLASGIPARFSGRGSGTDFTLTIDPVEADDTATYYCQQSRNLPTFGGGTKLELK | fold | 1

Next up:
Returns the measured fold over background (A450) for the input binder. Input: CL0020210 (antibody, V domains shown, also called Clone CL0020210; CL020210) VH: QIQLVQSGPELRKPGETVKISCKASGYTFTTYGMSWVKQAPGKGLKWMGWINTYSGLPRHSDDFKGRFAFSLETSASTAYLQINNLKNEDTATYFCAREVYYGSRKTAWFAYWGQGTLVTVSA VL: DLVMSQSPSSLAVSVGERITMTCKSSQSLLYSNDQKNYLAWYQQIPGQSPKLLLYWASTRESGVPDRFTGSGSGTDFTLTISSVKAEDLAVYFCQQYYNYPPTFGAGTKLELK 1.5
